Test system: SK-OV-3 ovarian
Method Summary: NCI-60 one-dose screen, 48 h (100 = growth as untreated, 0 = no growth, -100 = all killed)
Experimental Parameters: 10 µM unless noted
Compounds without any hit were thinned out: in the full panel of roughly 83,000, 20% have a hit.

# Compound, System Tested, Unit Name, growth
rows = [
    ("Cc1ccccc1[C@H]1C(C(=O)c2ccc(Cl)cc2)C2(N[C@@H]1c1ccccc1)C(=O)Nc1ccccc12 (stereo partly drawn)", "SK-OV-3 ovarian", "%", -3.38),
    ("CCOC(=O)/C=C/c1cccc2c1C(=O)NC(C)(c1cc3cc(Cl)ccc3oc1=O)N2 (stereo not drawn)", "SK-OV-3 ovarian", "%", -0.634),
    ("COc1cc2c(c(OC)c1OC)C(=O)CC(c1cccc(NC(=O)c3cccc([N+](=O)[O-])c3)c1)O2 (stereo not drawn)", "SK-OV-3 ovarian", "%", 64.2),
]
